Target: MK2 (Homo sapiens)
Sequence (P49137 whole entry): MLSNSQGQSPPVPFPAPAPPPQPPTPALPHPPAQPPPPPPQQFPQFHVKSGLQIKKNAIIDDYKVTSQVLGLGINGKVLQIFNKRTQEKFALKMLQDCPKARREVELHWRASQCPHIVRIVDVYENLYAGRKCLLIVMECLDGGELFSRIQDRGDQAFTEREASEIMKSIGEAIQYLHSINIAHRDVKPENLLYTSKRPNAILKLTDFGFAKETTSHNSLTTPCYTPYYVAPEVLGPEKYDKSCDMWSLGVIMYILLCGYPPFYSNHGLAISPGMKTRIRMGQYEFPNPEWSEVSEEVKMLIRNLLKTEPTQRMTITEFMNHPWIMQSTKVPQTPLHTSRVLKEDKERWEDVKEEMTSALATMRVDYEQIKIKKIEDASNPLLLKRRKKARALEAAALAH
Assay: MK2 degradation in human SW1353 cells (MSD, 24 h)
Format: cell-based
Set-up: endogenous in cells; host or cells: SW-1353 (ATCC HTB-94)
Conditions: read-out: MK2 MSD SW 1353 24 h Dmax %
Experimental: MK2 Degradation in Human SW1353 Cells […] After 3 more washes, the secondary detection antibody (SULFO-Tag anti rabbit antibody R32AB-5) was added at a final concentration of 1 microgram per ml at 25 microlitres per well and shaken at room temperature for 1 hour at 600 rpm. After 3 more washes, the 1×MSD (diluted from 5× concentrate with water) reading buffer was added at 150 microlitres per well and read on the MSD instrument Meso Sector S 600. […]
measured property: Dmax

Please review the entries below; each comes with its answer.
Challenge: Which measured Dmax value corresponds to `O=C1CCN(c2cncc3c(N4CC(CN5CCN(c6ccc(-c7cc(-c8cc9c([nH]8)C8(CC8)CNC9=O)ccn7)cc6)CC5)C4)cccc23)C(=O)N1` ?
Response given: > 75%

Challenge: Same question, Cn1c(=O)n(C2CCC(=O)NC2=O)c2ccc(N3CCC(CN4CCN(c5ccc(-c6nccc(-c7cc8c([nH]7)C7(CC7)CNC8=O)n6)cc5)CC4)CC3)cc21 (centres unmarked) this time
Response given: > 75%

Challenge: What do you have for C[C@@H]1CNc2c(sc3ccc4nc(-c5ccc(N6CC7(CCN(c8ccc9c(c8)n(C)c(=O)n9C8CCC(=O)NC8=O)CC7)C6)nc5)ccc4c23)C(=O)N1 (some centres unmarked) ?
Response given: > 75%

Challenge: What about this molecule? CN1CCc2[nH]c(-c3ccnc(-c4ccc(N5CCN(CC6CCN(c7ccc8c(c7)n(C)c(=O)n8C7CCC(=O)NC7=O)CC6)CC5)cc4)c3)cc2C1=O (centres unmarked)
Response given: < 50%

Consider the additional molecule presented here.
Challenge: Given the entry Cn1c(=O)n(C2CCC(=O)NC2=O)c2ccc(N3CC(CN4CCN(c5ccc(-c6nccc(-c7cc8c([nH]7)C7(CC7)CNC8=O)n6)cc5)CC4)C3)cc21 (centres unmarked) , report its measured Dmax.
Response given: > 75%
